Each recorded value in this set is attributed to patent US20070010671A1.

# experimental target: MCH receptor (Homo sapiens)
# test details: High throughput functional screening FLIPR/FDSS6000: inhibition of MCH-evoked intracellular Ca2+ changes
# Assay type: cell-based
# run conditions: class by percent of control at 10^-7 M or by IC50; read-out: class
measured metric: IC50

Cc1cc(Cl)ccc1NC(=O)N[C@H]1CC[C@@H](Nc2nc(N(C)C)c3ccccc3n2)CC1 [compound 146]; < 50 nM
CN(C)c1nc(N[C@H]2CC[C@@H](NC(=O)Nc3ccc(Cl)cc3[N+](=O)[O-])CC2)nc2ccccc12 [compound 147]; > 200 nM
CN(C)c1nc(N[C@H]2CC[C@@H](CNC(=O)OCC3c4ccccc4-c4ccccc43)CC2)nc2ccccc12 [compound 884]; > 200 nM

Task item: Give IC50 (MCH receptor (Homo sapiens)) of the following molecule: CN(C)c1nc(N[C@H]2CC[C@@H](NC(=O)Nc3ccc(F)c(F)c3)CC2)nc2ccccc12 [compound 123]
Reply: 50 to 200 nM

Task item: Give IC50 (MCH receptor (Homo sapiens)) of the following molecule: CN(C)c1nc(N[C@H]2CC[C@@H](NC(=O)Oc3ccc(Br)cc3)CC2)nc2ccccc12 [compound 850]
Reply: > 200 nM

Task item: Give IC50 (MCH receptor (Homo sapiens)) of the following molecule: CN(C)c1nc(N[C@H]2CC[C@@H](CNC(=S)Nc3ccc(F)cc3Br)CC2)nc2ccccc12 [compound 803]
Reply: > 200 nM
